# targetOfAssay: 17β-HSD1 (Homo sapiens (Human))
# Sequence (P14061 whole entry): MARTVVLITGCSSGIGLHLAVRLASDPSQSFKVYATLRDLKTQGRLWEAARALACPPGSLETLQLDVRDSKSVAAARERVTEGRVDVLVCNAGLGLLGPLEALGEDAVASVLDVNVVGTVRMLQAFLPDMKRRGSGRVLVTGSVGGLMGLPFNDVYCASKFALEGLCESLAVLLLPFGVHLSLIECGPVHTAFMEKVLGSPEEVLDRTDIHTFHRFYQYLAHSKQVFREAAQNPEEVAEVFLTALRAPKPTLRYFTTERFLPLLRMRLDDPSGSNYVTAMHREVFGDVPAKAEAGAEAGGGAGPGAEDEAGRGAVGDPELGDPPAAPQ
# assayProcedure: 17β-HSD1 test assay (recombinant protein from Sf9 insect cells, 3H-estrone/NADPH)
# Format: biochemical
# conditionContext: read-out: HSD1 100 nM (% inhibition); inhibitor 100 nM
Entries annotated with measured inhibition at 0.1 µM
outcomeMeasure: inhibition at 0.1 µM (%)

- CC(=O)Nc1cccc(-c2c(O)ccc3cc(-c4cccc(O)c4)ccc23)c1: 35.1
- O=[N+]([O-])c1cc(S(=O)(=O)Nc2cccc(-c3c(O)ccc4cc(-c5cccc(O)c5)ccc34)c2)ccc1Cl: 73.2
- Oc1cccc(-c2ccc3cc(O)ccc3c2)c1 [Compound 19, 6-(3-Hydroxyphenyl)-2-naphthol]: 91.4
- Oc1cccc(-c2cnc3cc(O)ccc3c2)c1 [Compound 16, 3-(3-Hydroxyphenyl)quinolin-7-ol]: 24
- Cc1cc(O)cc(-c2ccc3cc(O)ccc3c2)c1 [Compound 26, 6-(3-Hydroxy-5-methylphenyl)-2-naphthol]: 14.3
- O=S(=O)(Nc1cccc(-c2c(O)ccc3cc(-c4cccc(O)c4)ccc23)c1)c1ccc2ncsc2c1: 71.6
- O=C(c1c(O)ccc2cc(-c3cccc(O)c3)ccc12)N1CCCCC1: 28.8
- COc1ccc(-c2c(O)ccc3cc(-c4cccc(O)c4)ccc23)cn1: 85.9
